Numbers sourced from ChEMBL document CHEMBL2434933.

experiment: Stability of the compound in 0.1 M SDS-0.01 M 7.5% (v/v) 1-propanol-NaH2PO4/H3PO4 assessed as compound recovery at 7.5 x 10^-9 mol/ml by micellar liquid chromatography; type: physicochemical
readout: Drug recovery (%)

Oc1ncnc2[nH]ncc12 [ALLOPURINOL]	102.4
CCCc1nc2n[nH]cc2c(=O)[nH]1	101.17
CCCC(=O)n1ncc2c(O)ncnc21	103.11
CC(=O)n1ncc2c(O)ncnc21	98.03
CCC(=O)n1ncc2c(O)ncnc21	99.74
Cc1nc(O)c2c[nH]nc2n1	98.57
CCc1nc(O)c2c[nH]nc2n1	101.19
